meta.source: ChEMBL document CHEMBL5120927

Assay: Gradient chromatographic hydrophobicity index of the compound at pH 3.7 by HPLC analysis
Assay type: ADME
Note to self: use rule met only for CHI readings below 30; a reading exactly at 30 still gets rule not met.

Solved cases below.
# input Criterion: CHI strictly below 30. Is it met by CCCCCCCCOP(=O)(CCN(CCCN)CCCN)OCCCOP(=O)(CCN(CCCN)CCCN)OCCCCCCCC.Cl.Cl.Cl.Cl.Cl.Cl (configuration not stated) ?
# output rule not met

# input Criterion: CHI strictly below 30. Is it met by CCCC/C=C\CCOP(=O)(CCN(CCCNC(=N)N)CCCNC(=N)N)OCCCCCCOP(=O)(CCN(CCCNC(=N)N)CCCNC(=N)N)OCC/C=C\CCCC.Cl.Cl.Cl.Cl.Cl.Cl (configuration not stated) ?
# output rule not met

# input Criterion: CHI strictly below 30. Is it met by CCCCOP(=O)(CCN(CCCN)CCCN)OCCCCCCCCCCOP(=O)(CCN(CCCN)CCCN)OCCCC.Cl.Cl.Cl.Cl.Cl.Cl (configuration not stated) ?
# output rule met

Further cases:
# input Criterion: CHI strictly below 30. Is it met by CCCCCCCCCCOP(=O)(CCN(CCCN)CCCN)OCCCCCCOP(=O)(CCN(CCCN)CCCN)OCCCCCCCCCC.Cl.Cl.Cl.Cl.Cl.Cl (configuration not stated) ?
# output rule not met

# input Criterion: CHI strictly below 30. Is it met by CCCCCCOP(=O)(CCN(CCCNC(=N)N)CCCNC(=N)N)OCCCCCCCCOP(=O)(CCN(CCCNC(=N)N)CCCNC(=N)N)OCCCCCC.Cl.Cl.Cl.Cl.Cl.Cl (configuration not stated) ?
# output rule not met

# input Criterion: CHI strictly below 30. Is it met by Cl.Cl.Cl.Cl.Cl.Cl.NCCCN(CCCN)CCP(=O)(OCCCOP(=O)(CCN(CCCN)CCCN)OCC1CCCC1)OCC1CCCC1 (configuration not stated) ?
# output rule met

# input Criterion: CHI strictly below 30. Is it met by CC(C)COP(=O)(CCN(CCCN)CCCN)OCCCCCCCCCCCCOP(=O)(CCN(CCCN)CCCN)OCC(C)C.Cl.Cl.Cl.Cl.Cl.Cl (configuration not stated) ?
# output rule not met

# input Criterion: CHI strictly below 30. Is it met by CCCCCCOP(=O)(CCN(CCCN)CCCN)OCCCCCCCCCCCCOP(=O)(CCN(CCCN)CCCN)OCCCCCC.Cl.Cl.Cl.Cl.Cl.Cl (configuration not stated) ?
# output rule not met

# input Criterion: CHI strictly below 30. Is it met by CCC/C=C\CCOP(=O)(CCN(CCCN)CCCN)OCCCCCOP(=O)(CCN(CCCN)CCCN)OCC/C=C\CCC.Cl.Cl.Cl.Cl.Cl.Cl (configuration not stated) ?
# output rule met

# input Criterion: CHI strictly below 30. Is it met by CCCC/C=C\CCOP(=O)(CCN(CCCN)CCCN)OCCCOP(=O)(CCN(CCCN)CCCN)OCC/C=C\CCCC.Cl.Cl.Cl.Cl.Cl.Cl (configuration not stated) ?
# output rule not met

----------
Reported log10(HC50 at 3 h) values for a set of molecules
Assay: Hemolytic activity in human RBC assessed as haemoglobin release measured after 3 hr
Assay type: toxicity, cell-based, Erythrocyte
Conditions: red blood cells (erythrocytes)
Give log10 of HC50 at 3 h, with HC50 at 3 h taken in µg/mL.

Worked cases, log10(HC50 at 3 h) given:
# input In one line, give reported log10(HC50 at 3 h) of the entry CCCCCCCCCOP(=O)(CCN(CCCN)CCCN)OCCOCc1ccc(OC)cc1.Cl.Cl.Cl (centres undefined) .
# output 1.74

# input In one line, give reported log10(HC50 at 3 h) of the entry CCCCC/C=C\CCCOP(=O)(CCN(CCCN)CCCN)OCCCCCCOP(=O)(CCN(CCCN)CCCN)OCCC/C=C\CCCCC.Cl.Cl.Cl.Cl.Cl.Cl (centres undefined) .
# output 1.63

# input In one line, give reported log10(HC50 at 3 h) of the entry CCCCCCCCCCCCCCCCOP(=O)(CCN(CCCN)CCCN)OCC.Cl.Cl.Cl (centres undefined) .
# output 0.97

# input In one line, give reported log10(HC50 at 3 h) of the entry CCCCCCCOP(=O)(CCN(CCCN)CCCN)OCCCCCCCOP(=O)(CCN(CCCN)CCCN)OCCCCCCC.Cl.Cl.Cl.Cl.Cl.Cl (centres undefined) .
# output 2.46

# input In one line, give reported log10(HC50 at 3 h) of the entry CCCCCCOP(=O)(CCN(CCCNC(=N)N)CCCNC(=N)N)OCCCCCCCCOP(=O)(CCN(CCCNC(=N)N)CCCNC(=N)N)OCCCCCC.Cl.Cl.Cl.Cl.Cl.Cl (centres undefined) .
# output 2.14

# input In one line, give reported log10(HC50 at 3 h) of the entry CC(C)COP(=O)(CCN(CCCN)CCCN)OCCCCCCCCCCCCOP(=O)(CCN(CCCN)CCCN)OCC(C)C.Cl.Cl.Cl.Cl.Cl.Cl (centres undefined) .
# output 2.23

Further cases:
# input In one line, give reported log10(HC50 at 3 h) of the entry CCCC/C=C\CCOP(=O)(CCN(CCCN)CCCN)OCCCCCOP(=O)(CCN(CCCN)CCCN)OCC/C=C\CCCC.Cl.Cl.Cl.Cl.Cl.Cl (centres undefined) .
# output 1.85

# input In one line, give reported log10(HC50 at 3 h) of the entry CCCCCCCCCOP(=O)(CCN(CCCN)CCCN)OCCc1cccc2ccccc12.Cl.Cl.Cl (centres undefined) .
# output 1.11

# input In one line, give reported log10(HC50 at 3 h) of the entry CCCCCCCCCOP(=O)(CCN(CCCN)CCCN)OCCc1ccc([N+](=O)[O-])cc1.Cl.Cl.Cl (centres undefined) .
# output 1.70

# input In one line, give reported log10(HC50 at 3 h) of the entry CCCCCCCCCCCCCCCOP(=O)(CCN(CCCN)CCCN)OCC.Cl.Cl.Cl (centres undefined) .
# output 0.84

# input In one line, give reported log10(HC50 at 3 h) of the entry CCCCCCCCCOP(=O)(CCN(CCCN)CCCN)OCCc1ccc(Cl)cc1.Cl.Cl.Cl (centres undefined) .
# output 1.24

# input In one line, give reported log10(HC50 at 3 h) of the entry CCCCCCCCCCCCOP(=O)(CCN(CCCN)CCCN)OCCCCCCCCCCCC.Cl.Cl.Cl .
# output 1.05

# input In one line, give reported log10(HC50 at 3 h) of the entry CCCCCCCCOP(=O)(CCN(CCN)CCN)OCCCCCCCCOP(=O)(CCN(CCN)CCN)OCCCCCCCC.Cl.Cl.Cl.Cl.Cl.Cl (centres undefined) .
# output 1.28

# input In one line, give reported log10(HC50 at 3 h) of the entry Cl.Cl.Cl.Cl.Cl.Cl.NCCCN(CCCN)CCP(=O)(OCCCCCCCCCCCCOP(=O)(CCN(CCCN)CCCN)OCCc1ccccc1)OCCc1ccccc1 (centres undefined) .
# output 2.55

# input In one line, give reported log10(HC50 at 3 h) of the entry CCCCC/C=C\CCOP(=O)(CCN(CCCNC(=N)N)CCCNC(=N)N)OCCCCCOP(=O)(CCN(CCCNC(=N)N)CCCNC(=N)N)OCC/C=C\CCCCC.Cl.Cl.Cl.Cl.Cl.Cl (centres undefined) .
# output 2.08

# input In one line, give reported log10(HC50 at 3 h) of the entry CCCCC/C=C\CCOP(=O)(CCN(CCCN)CCCN)OCCCCCCOP(=O)(CCN(CCCN)CCCN)OCC/C=C\CCCCC.Cl.Cl.Cl.Cl.Cl.Cl (centres undefined) .
# output 2.42

----------
Test system: Staphylococcus aureus
Assay: Antibacterial activity against wild type Staphylococcus aureus 4566/A assessed as reduction in microbial growth incubated for 24 hrs by microdilution assay
Type: functional
READOUT LABEL: MIC
Hi, when you answer, please include the unit after the number. Thanks!

# input In one line, give reported MIC of the entry CCCCCCCCOP(=O)(CCN(CCCN)CCCN)OCCCCCCOP(=O)(CCN(CCCN)CCCN)OCCCCCCCC.Cl.Cl.Cl.Cl.Cl.Cl (centres undefined) .
# output 0.5 µg/mL

# input In one line, give reported MIC of the entry Cc1onc(-c2ccccc2)c1C(=O)N[C@@H]1C(=O)N2[C@@H]1SC(C)(C)[C@@H]2C(=O)O [OXACILLIN] .
# output 0.25 µg/mL

# input In one line, give reported MIC of the entry CCCC/C=C\CCOP(=O)(CCN(CCCN)CCCN)OCCCCCOP(=O)(CCN(CCCN)CCCN)OCC/C=C\CCCC.Cl.Cl.Cl.Cl.Cl.Cl (centres undefined) .
# output 4 µg/mL

Please find the next compound below.
# input In one line, give reported MIC of the entry CCCCCCCCOP(=O)(CCN(CCCN)CCCN)OCCCCOP(=O)(CCN(CCCN)CCCN)OCCCCCCCC.Cl.Cl.Cl.Cl.Cl.Cl (centres undefined) .
# output 1 µg/mL
